measuredOn: JAK3 (catalytic domain, His-tag) (Homo sapiens)
Construct: All four purified enzymes contain only the catalytic domain; His (N); purchased Carna Biosciences, Inc; host or cells: baculovirus expression system
protocolDetails: JAK kinase assay (HTRF, phosphorylation of TK substrate-biotin), JAK3
Type: biochemical
experimentalConditions: ATP at Km (2 μM); read-out: JAK3 kinase inhibitory activity (EC50 indicator)
Reported EC50 values are given for each entry in this list.

Reference set (3 entries):
compound | testResult
CN(C)S(=O)(=O)c1ccc(C(=O)N2CCN(c3ncnc4[nH]ccc34)CC23CC3)cc1 [Example 189] | 100 to 500 nM
CS(=O)(=O)c1ccc(C(=O)N2CCN(c3ncnc4[nH]ccc34)CC23CC3)c(F)c1 [Example 183] | < 100 nM
O=C(OCc1ccccc1)N1[C@@H]2CC[C@H]1CN(c1ncnc3[nH]ccc13)C2 [Example 58] | 100 to 500 nM

Data request: State the recorded EC50 for this entry: N#Cc1cccc(CS(=O)(=O)N2[C@@H]3CC[C@H]2CN(c2ncnc4[nH]ccc24)C3)c1 [Example 77]
Data returned: 100 to 500 nM

Data request: Quick one: EC50 for O=C(Cc1cccs1)N1CCN(c2ncnc3[nH]ccc23)CC12CC2 [Example 190] ?
Data returned: < 100 nM

Data request: Any idea what its EC50 is? The compound is O=C1c2ccccc2CC1C(=O)N1C2CCC1CN(c1ncnc3[nH]ccc13)C2 (centres unmarked) [Example 133]
Data returned: > 500 nM

Data request: Look at this compound and give its reported EC50. CC(=O)c1cc(C(=O)N2[C@@H]3CC[C@H]2CN(c2ncnc4[nH]ccc24)C3)cs1 [Example 112]
Data returned: 100 to 500 nM

Data request: Form field: reported EC50 of CC(C)S(=O)(=O)c1ccc(C(=O)N2C3CCC2CN(c2ncnc4[nH]ccc24)C3)cc1 [Example 202]
Data returned: > 500 nM

Data request: Entry CC(=O)NCC(=O)N1CCN(c2ncnc3[nH]ccc23)CC12CC2 [Example 151] : reported EC50 = ?
Data returned: > 500 nM

---

measuredOn: JAK3 (catalytic domain, His-tag) (Homo sapiens, UniProt P52333)
Construct: All four purified enzymes contain only the catalytic domain; His (N); purchased Carna Biosciences, Inc; host or cells: baculovirus expression system
Sequence (P52333 822-1111 limits assumed): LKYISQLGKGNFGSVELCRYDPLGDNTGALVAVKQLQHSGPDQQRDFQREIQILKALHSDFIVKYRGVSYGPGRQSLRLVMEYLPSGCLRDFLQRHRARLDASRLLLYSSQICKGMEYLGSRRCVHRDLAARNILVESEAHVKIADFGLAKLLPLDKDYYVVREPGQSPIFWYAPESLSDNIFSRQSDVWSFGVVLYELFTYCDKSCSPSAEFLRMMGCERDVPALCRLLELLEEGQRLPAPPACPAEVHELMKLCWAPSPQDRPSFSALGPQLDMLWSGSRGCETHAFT
protocolDetails: JAK kinase assay (HTRF, phosphorylation of TK substrate-biotin), JAK3
Format: biochemical
experimentalConditions: ATP at Km (2 μM); read-out: JAK3 kinase inhibitory activity (EC50 indicator)
measurementName: EC50

Data request: Requested field: EC50. Item: COCCCNC(=S)N1[C@@H]2CC[C@H]1CN(c1ncnc3[nH]ccc13)C2 [Example 39]
Data returned: > 0.5 µM

Data request: Look at this compound and give its reported EC50. CC(C)(C)OC(=O)N1[C@@H]2CC[C@H]1CN(c1ncnc3[nH]ccc13)C2 [Example 9]
Data returned: 0.1 to 0.5 µM

Data request: Quick one: EC50 of CS(=O)(=O)c1ccc2[nH]c(C(=O)N3C4CCC3CN(c3ncnc5[nH]ccc35)C4)cc2c1 [Example 130] ?
Data returned: < 0.1 µM

Data request: Please give the measured EC50 for this compound: COC(=O)c1cc2c(N3CCN(C(=O)Cc4ccc(C#N)cc4)C4(CC4)C3)ncnc2[nH]1 [Example 124]
Data returned: > 0.5 µM
